A compilation of published log10(IC50) results with UniProtKB Q9NRG4.
Sequence (Q9NRG4 whole entry): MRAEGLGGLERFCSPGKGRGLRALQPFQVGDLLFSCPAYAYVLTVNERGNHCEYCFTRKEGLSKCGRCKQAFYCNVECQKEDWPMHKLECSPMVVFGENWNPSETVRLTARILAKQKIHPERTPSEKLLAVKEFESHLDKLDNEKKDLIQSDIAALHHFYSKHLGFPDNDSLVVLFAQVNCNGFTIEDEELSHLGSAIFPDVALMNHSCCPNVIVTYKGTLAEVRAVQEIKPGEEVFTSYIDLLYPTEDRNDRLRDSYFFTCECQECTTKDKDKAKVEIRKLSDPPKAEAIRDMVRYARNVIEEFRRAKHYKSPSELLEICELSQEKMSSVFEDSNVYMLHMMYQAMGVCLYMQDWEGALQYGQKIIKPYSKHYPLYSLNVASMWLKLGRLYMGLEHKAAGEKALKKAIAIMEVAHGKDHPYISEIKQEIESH
Readout kind: log10(IC50) (log10 of the value in µM)

Molecule: Nc1ncnc2c1ncn2[C@@H]1O[C@H](CSCC[C@H](N)C(=O)O)[C@@H](O)[C@H]1O
Target of assay: UniProtKB Q9NRG4
Assay result: -0.74
--
Molecule: O=C(CCNCCc1ccc(Cl)c(Cl)c1)N(CCNCCCN1CCCCC1)C1CCCCC1
Target of assay: UniProtKB Q9NRG4
Assay result: 0.38
--
Molecule: O=C1COc2c(CCNCCN(C(=O)CCNCCc3ccc(Cl)c(Cl)c3)C3CCCCC3)ccc(O)c2N1
Target of assay: UniProtKB Q9NRG4
Assay result: 1.30
--
Molecule: CN1C(=O)C(CCNc2ccc(-c3cccs3)cc2)COC12C=CC(=O)C=C2 (stereo unspecified)
Target of assay: UniProtKB Q9NRG4
Assay result: 0.36
--
Molecule: COc1ccc(N2CCCCC2)c(NCCC2COC3(C=CC(=O)C=C3)N(C)C2=O)c1 (stereo unspecified)
Target of assay: UniProtKB Q9NRG4
Assay result: 0.74
--
Molecule: O=C1COc2c(CCNCCN(C(=O)CCNCc3ccc(Cl)c(Cl)c3)C3CCCCC3)ccc(O)c2N1
Target of assay: UniProtKB Q9NRG4
Assay result: 0.49
--
Molecule: CN1C(=O)C(CCO[Si](c2ccccc2)(c2ccccc2)C(C)(C)C)COC12C=CC(=O)C=C2 (stereo unspecified)
Target of assay: UniProtKB Q9NRG4
Assay result: -0.17
--
Molecule: CN1C(=O)C(CCNc2cccc(Cc3ccccc3)c2)COC12C=CC(=O)C=C2 (stereo unspecified)
Target of assay: UniProtKB Q9NRG4
Assay result: 0.79
--
Molecule: O=C1C=CC2(C=C1)OCC(Cc1cn(-c3cccc(Cc4ccccc4)c3)nn1)C(=O)N2c1ccccc1 (stereo unspecified)
Target of assay: UniProtKB Q9NRG4
Assay result: 0.49
--
Molecule: N#Cc1cc(C(=O)NCCCN2CCCC2)cc(-c2ccccc2N2CCN(CCc3c[nH]c4ccccc34)CC2)c1
Target of assay: UniProtKB Q9NRG4
Assay result: -1.57
--
Molecule: CC(C)N1C(=O)C(CCO[Si](c2ccccc2)(c2ccccc2)C(C)(C)C)COC12C=CC(=O)C=C2 (stereo unspecified)
Target of assay: UniProtKB Q9NRG4
Assay result: -0.40
--
Molecule: O=C1COc2c([C@@H](O)CNCCN(C(=O)CCNCCc3ccc(Cl)c(Cl)c3)C3CCCCC3)ccc(O)c2N1
Target of assay: UniProtKB Q9NRG4
Assay result: -2.52
